Please go through the items and note down their Kd.
- measurement.target: T1, human ST2L extracellular domain with C-terminal His6 tag (human, UniProt Q01638 19-328)
- T1 construct: also called huST2L-ECD; ST2L-ECD
- T1 sequence: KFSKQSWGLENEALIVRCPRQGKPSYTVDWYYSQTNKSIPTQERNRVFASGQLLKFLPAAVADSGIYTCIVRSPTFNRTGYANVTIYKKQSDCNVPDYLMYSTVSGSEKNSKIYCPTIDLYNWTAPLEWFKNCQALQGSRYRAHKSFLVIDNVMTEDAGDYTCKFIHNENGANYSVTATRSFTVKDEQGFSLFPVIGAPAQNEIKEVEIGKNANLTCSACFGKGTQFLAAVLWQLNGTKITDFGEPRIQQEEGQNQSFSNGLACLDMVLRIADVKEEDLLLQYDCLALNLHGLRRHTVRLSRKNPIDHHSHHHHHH
- assay.method.text: ProteOn SPR, mAb captured, ST2L-ECD in solution
- Experimental: The affinities were analyzed by ProteOn. The experiments were performed at 25° C. using ProteOn's PBS-T-E buffer (PBS, 0.005% P20 and 3 mM EDTA) as running buffer. […] Mab capture was followed by injection of ST2L-ECD from 0.024-15 nM (5-fold dilutions) for 4 min (200 μL at 50 μL/min). The dissociation was monitored for 30 minutes for all reaction. Regeneration was performed using two 15 sec pulses of 10 mM glycine pH1.5. The data was fitted to a 1:1 with baseline drift model. […]
Give bare numbers, in nM.

Please review the entries below; each comes with its answer.
binder="STLM202 (antibody, V domains shown, C2494 HFA mAb: VH STLH194 + VL STLL275 (L5)) VH: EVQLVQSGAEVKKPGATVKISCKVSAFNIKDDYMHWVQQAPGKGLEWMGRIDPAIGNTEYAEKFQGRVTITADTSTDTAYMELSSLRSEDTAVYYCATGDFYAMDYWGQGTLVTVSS VL: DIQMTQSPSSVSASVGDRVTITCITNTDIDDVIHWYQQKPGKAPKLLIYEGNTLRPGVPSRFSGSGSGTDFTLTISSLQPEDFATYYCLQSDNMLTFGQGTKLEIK" measured_metric=Kd result_value=0.0529
binder="STLM187 (antibody, V domains shown, C2494 HFA mAb: VH STLH195 (IGHV1-24*01) + VL STLL280 (O12b)) VH: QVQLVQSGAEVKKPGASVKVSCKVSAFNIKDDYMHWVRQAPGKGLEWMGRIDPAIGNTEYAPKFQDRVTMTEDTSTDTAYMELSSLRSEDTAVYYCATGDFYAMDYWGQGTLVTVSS VL: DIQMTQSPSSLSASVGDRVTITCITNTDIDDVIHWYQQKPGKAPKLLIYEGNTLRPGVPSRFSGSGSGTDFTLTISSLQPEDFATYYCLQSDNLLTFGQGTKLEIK" measured_metric=Kd result_value=0.473

The record that follows has no Kd shown yet.
// Kd lookup, binder = STLM203 (antibody, V domains shown, C2494 HFA mAb: VH STLH194 + VL STLL274 (O12)) VH: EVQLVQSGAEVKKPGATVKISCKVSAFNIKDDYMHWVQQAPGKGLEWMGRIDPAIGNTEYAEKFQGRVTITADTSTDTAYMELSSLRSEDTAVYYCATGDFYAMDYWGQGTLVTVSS VL: DIQMTQSPSSLSASVGDRVTITCITNTDIDDVIHWYQQKPGKAPKLLIYEGNTLRPGVPSRFSGSGSGTDFTLTISSLQPEDFATYYCLQSDNMLTFGQGTKLEIK , result: 0.0473
